T/C listing for selected compounds.
# System: BDF1 mice, Lewis lung carcinoma iv, survival T/C
# Measurement description: NCI In Vivo Anticancer Drug Screen. Data for tumor model Lewis Lung Carcinoma (intravenous) in B6D2F1 (BDF1) mice
# Setup conditions: endpoint: median survival time; dose: 1.5 mg/kg/injection; schedule: Q01DX009 (ip); vehicle: saline; higher = longer survival
Toxic doses and inconclusive results are not listed.

Guide cases for T/C, answers given:
1) [Cl][Pt+2][Cl].[NH-]CC1(C[NH-])CCCCC1 = 96 % of control
2) O=C(NCCCN1CC1)C(=O)NCCCN1CC1 = 114 % of control
3) O=C(NCCCCCCCCCCNC(=O)N1CC1)N1CC1 = 110 % of control
4) O=C(CCN1CC1)OCCOC(=O)CCN1CC1 = 111 % of control

Request: State its T/C for this compound: `O=C(NCCN1CC1)C(=O)NCCN1CC1`
Response: 120 % of control

Request: Given COc1cccc2c1C(=O)c1c(O)c3c(c(O)c1C2=O)C[C@@](O)(/C(C)=N\NC(=O)CO)C[C@@H]3OC1CC(N)C(O)C(C)O1 (some centres not stated) , respond with its T/C.
Response: 101 % of control

Request: Query T/C for `O=S(=O)(O)O.[W]`
Response: 98 % of control
